Collected Ki values appear next to each entry.
- System under test: Tyrosine-protein kinase ZAP-70 (Homo sapiens)
- Sequence (P43403 whole entry): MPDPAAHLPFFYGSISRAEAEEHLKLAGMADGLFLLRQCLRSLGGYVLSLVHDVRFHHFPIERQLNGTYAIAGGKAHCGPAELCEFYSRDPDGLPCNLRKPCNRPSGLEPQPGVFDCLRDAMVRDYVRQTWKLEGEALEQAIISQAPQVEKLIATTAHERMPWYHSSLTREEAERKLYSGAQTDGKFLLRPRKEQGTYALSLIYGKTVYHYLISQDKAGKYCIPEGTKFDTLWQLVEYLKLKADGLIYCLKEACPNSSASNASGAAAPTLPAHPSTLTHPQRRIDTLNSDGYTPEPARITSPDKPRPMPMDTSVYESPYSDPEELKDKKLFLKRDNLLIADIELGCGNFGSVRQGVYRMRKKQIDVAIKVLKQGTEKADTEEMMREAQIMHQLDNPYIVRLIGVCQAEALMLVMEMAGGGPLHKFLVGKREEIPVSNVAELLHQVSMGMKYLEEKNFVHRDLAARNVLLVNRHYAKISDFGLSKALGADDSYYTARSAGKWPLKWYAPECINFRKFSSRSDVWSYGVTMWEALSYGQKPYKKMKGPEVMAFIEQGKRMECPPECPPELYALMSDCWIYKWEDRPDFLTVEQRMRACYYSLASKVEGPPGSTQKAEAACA
- Experiment description: Inhibition of human recombinant ZAP70 using EEEEYEEEE as substrate by ESI-MS analysis
Endpoint name: Ki

# Compound string, Result
rows = [
    ("CN(C)c1ncnc2nc[nH]c12", "> 10 µM"),
    ("CCCCc1c(-c2ccc(OC)cc2)[nH]c2nccnc12", "2.63 µM"),
    ("O=C1C(C2=C3C(=Nc4ccccc43)/C(=C\\c3ccc(O)cc3)C2=O)=C2C(=Nc3ccccc32)/C1=C\\c1ccc(O)cc1", "1.55 µM"),
    ("NS(=O)(=O)c1ccc(Nc2nc(OCC3CCCCC3)c3nc[nH]c3n2)cc1", "> 10 µM"),
    ("Cc1[nH]c(/C=C2\\C(=O)Nc3ccc(S(=O)(=O)N(C)c4cccc(Cl)c4)cc32)c(C)c1C(=O)N1CCN(C)CC1", "> 10 µM"),
    ("NS(=O)(=O)c1ccc(N/N=C2\\C(=O)Nc3ccc(Br)cc32)cc1", "> 10 µM"),
]

###

- System under test: Protein-tyrosine kinase 2-beta (Homo sapiens)
- Sequence (Q14289 whole entry): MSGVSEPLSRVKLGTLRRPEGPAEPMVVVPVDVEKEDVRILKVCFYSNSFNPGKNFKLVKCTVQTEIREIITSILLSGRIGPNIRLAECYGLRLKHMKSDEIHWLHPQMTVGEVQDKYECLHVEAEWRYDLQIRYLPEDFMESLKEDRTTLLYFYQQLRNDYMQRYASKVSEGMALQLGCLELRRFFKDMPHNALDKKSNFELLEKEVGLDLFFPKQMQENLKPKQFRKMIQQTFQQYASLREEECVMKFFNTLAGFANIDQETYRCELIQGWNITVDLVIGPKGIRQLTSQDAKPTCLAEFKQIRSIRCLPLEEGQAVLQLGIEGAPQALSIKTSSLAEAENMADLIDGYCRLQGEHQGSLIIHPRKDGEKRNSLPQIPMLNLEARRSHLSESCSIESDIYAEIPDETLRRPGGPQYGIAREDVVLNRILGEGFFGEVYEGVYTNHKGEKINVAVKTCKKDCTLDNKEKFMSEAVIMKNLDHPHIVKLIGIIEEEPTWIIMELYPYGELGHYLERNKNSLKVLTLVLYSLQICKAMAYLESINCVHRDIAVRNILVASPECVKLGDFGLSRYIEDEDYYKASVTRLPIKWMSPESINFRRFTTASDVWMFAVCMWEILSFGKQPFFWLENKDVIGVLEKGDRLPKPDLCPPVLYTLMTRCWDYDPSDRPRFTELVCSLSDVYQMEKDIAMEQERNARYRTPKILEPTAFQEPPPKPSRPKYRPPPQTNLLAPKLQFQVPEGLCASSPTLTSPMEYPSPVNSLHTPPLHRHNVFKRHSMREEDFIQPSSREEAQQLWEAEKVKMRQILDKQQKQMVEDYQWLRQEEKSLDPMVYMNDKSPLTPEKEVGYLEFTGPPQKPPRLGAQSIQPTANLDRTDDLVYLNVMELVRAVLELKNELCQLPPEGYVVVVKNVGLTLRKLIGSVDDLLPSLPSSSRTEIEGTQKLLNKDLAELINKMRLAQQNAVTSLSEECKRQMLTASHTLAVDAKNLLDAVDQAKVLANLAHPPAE
- Experiment description: Inhibition of human recombinant PYK2 by ESI-MS analysis
pKi: −log10 of the molar value.

# Compound, System under test, pKi
records = [
    ("CN(C)c1ncnc2nc[nH]c12 [DIMETHYLADENINE]", "Protein-tyrosine kinase 2-beta (Homo sapiens)", "< 5.00"),
    ("NS(=O)(=O)c1ccc(Nc2nc(OCC3CCCCC3)c3nc[nH]c3n2)cc1", "Protein-tyrosine kinase 2-beta (Homo sapiens)", "< 5.00"),
    ("NS(=O)(=O)c1ccc(N/N=C2\\C(=O)Nc3ccc(Br)cc32)cc1", "Protein-tyrosine kinase 2-beta (Homo sapiens)", "< 5.00"),
    ("CCCCc1c(-c2ccc(OC)cc2)[nH]c2nccnc12 [ALOISINE]", "Protein-tyrosine kinase 2-beta (Homo sapiens)", 6.03),
    ("O=C1C(C2=C3C(=Nc4ccccc43)/C(=C\\c3ccc(O)cc3)C2=O)=C2C(=Nc3ccccc32)/C1=C\\c1ccc(O)cc1 [SCYTONEMIN]", "Protein-tyrosine kinase 2-beta (Homo sapiens)", "< 5.00"),
    ("Cc1[nH]c(/C=C2\\C(=O)Nc3ccc(S(=O)(=O)N(C)c4cccc(Cl)c4)cc32)c(C)c1C(=O)N1CCN(C)CC1", "Protein-tyrosine kinase 2-beta (Homo sapiens)", 7.98),
]

From: ChEMBL document CHEMBL2029332
